Target: mouse CRF receptor, type 2β (mCRFR2β) (mouse) (UniProt Q60748)
Experiment: Kd(rCRFR1)/Kd(mCRFR2β) of the peptide normalised to that of astressin; radioligand displacement
Non-standard residues stand in square brackets, D forms with d. No end group written: not given here. *: point of attachment. ATB = 4-(1-azi-2,2,2-trifluoroethyl)benzoyl, O=C(c1ccc(C2(C(F)(F)F)N=N2)cc1)*
Overview of reported Selectivity across a group of binders:

{"binder": "[dF]ELLRKMIEIEKQEKEKQQAANNRLLLDTI (not fully specified (C-terminus), also called compound 12) [[DPhe^11]Svg(11-40)]", "Selectivity": 47.6}
{"binder": "SQEPPISLDLTFHLLREVLEMTKADQLAQQAHSNRKLLDIA (ends and bridges not checked, Synthetic peptide (Fmoc chemistry on TentaGel S RAM resin); also called compound 1) [ovine corticotropin-releasing factor (oCRF)]", "Selectivity": 0.002}
{"binder": "[dL]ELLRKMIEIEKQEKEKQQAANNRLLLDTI (not fully specified (C-terminus), also called compound 13) [[DLeu^11]Svg(11-40)]", "Selectivity": 56.1}
{"binder": "YHLLRKMIEIEKQEKEKQQAANNRLLLDTI (ends and bridges not checked, also called compound 18) [[Tyr^11, His^12]Svg(11-40)]", "Selectivity": 31.6}
{"binder": "{ATB}-HLLRKMIEIEKQEKEKQQAANNRLLLDTI (ends and bridges not checked, also called compound 17) [ATB-[His^12]Svg(12-40)]", "Selectivity": 32.3}
{"binder": "[dF]HLLRKMIEIEKQEKEKQQAANNRLLLDTI (not fully specified (C-terminus)) [antisauvagine-30, [DPhe^11, His^12]Svg(11-40)]", "Selectivity": 77}
{"binder": "YELLRKMIEIEKQEKEKQQAANNRLLLDTI (ends and bridges not checked, also called compound 19) [[Tyr^11]Svg(11-40)]", "Selectivity": 33}
{"binder": "LELLRKMIEIEKQEKEKQQAANNRLLLDTI (not fully specified (C-terminus), also called compound 14) [Svg(11-40)]", "Selectivity": 37.9}
{"binder": "YLLRKMIEIEKQEKEKQQAANNRLLLDTI (ends and bridges not checked, also called compound 20) [[Tyr^12]Svg(12-40)]", "Selectivity": 1.63}
